Provenance of the data: ChEMBL document CHEMBL1687889

Field: GI50. Provide a value for each of the molecules that follow.
- assay-comment: Antiproliferative activity against human KBVIN cells after 3 days by sulforhodamine B assay
- Format: functional
- assay-conditions: 72 h
Answers are plain numbers, in nM.

Here are 3 molecules together with their reported answers.
                                   molecule  recorded_measurement
0  CCC1=C(O)c2c(oc(-c3ccc(C)c4ccccc34)cc2=O)C(CC)(CC)C1=O                   270
1  CCC1=C(O)c2c(oc(-c3ccc4cc(OC)ccc4c3)cc2=O)C(CC)(CC)C1=O                  9570
2  CCC1=C(O)c2c(oc(-c3csc4ccccc34)cc2=O)C(CC)(CC)C1=O                    70

Please state, for each entry, its recorded GI50.
1. CCC1=C(O)c2c(oc(-c3ccc4c(c3)OCCO4)cc2=O)C(CC)(CC)C1=O
2. CC1=C(O)c2c(oc(-c3ccc(C)c4ccccc34)cc2=O)C(C)(C)C1=O
3. CCC1=C(O)c2c(oc(-c3ccc(-c4ccccc4)cc3)cc2=O)C(CC)(CC)C1=O
4. CCC1=C(O)c2c(oc(-c3ccc4c(c3)OCO4)cc2=O)C(CC)(CC)C1=O
5. CCC1=C(O)c2c(oc(-c3cccc4ccsc34)cc2=O)C(CC)(CC)C1=O
6. CCC1=C(OC)C(CC)(CC)c2oc(-c3cccc4ccccc34)cc(=O)c2C1=O

1140
720
12100
17000
940
9700

Please state, for each entry, its recorded GI50.
1. CCC1=C(O)c2c(oc(-c3coc4ccccc34)cc2=O)C(CC)(CC)C1=O
2. CCC1=C(O)c2c(oc(-c3c(C)sc4ccccc34)cc2=O)C(CC)(CC)C1=O
3. CCC1=C(O)C2=C(OC(c3cccc4ccccc34)CC2=O)C(CC)(CC)C1=O (centres undefined)
4. CCC1=C(O)c2c(oc(-c3c(OC)ccc4sccc34)cc2=O)C(CC)(CC)C1=O

1: 2090; 2: 760; 3: 3870; 4: 11100
